Assay: reversal of MRP1-mediated doxorubicin resistance, pilot screen, H69AR cells, doxorubicin co-treatment (AID 601)
Details: H69AR cells + 2 uM doxorubicin, CellTiter-Glo, 72 h; measured here: viability with 2 uM doxorubicin; at 10 µM; stronger effect = lower value
Field 'label' (enum: y / n). Set to y when viability is strictly under 90%; else n.

> print(dat)
                                    compound  class
 1      COC(=O)c1c(O)ccc(Oc2ccccc2)c1C(=O)OC      y
 2  Fc1ccc(-n2c(Cc3ccccc3)nnc2SCc2nc(-c3cccs3)no2)cc1      y
 3   COc1ccc2c(c1)[nH]c1c(=O)n(CCN(C)C)cnc12      n
 4  O=C(C1CCN(c2nnnn2-c2ccccc2)CC1)N1CCN(c2ccccc2)CC1      y
 5  Cc1ccc(-n2nnnc2SCC(=O)c2cc(C)n(-c3cc(C)on3)c2C)cc1      n
 6  Cc1cc(Cl)c(S(=O)(=O)N2CCN(c3ccc(F)cc3)CC2)cc1OCC(N)=O      y
 7  CC1(C)CC(=O)C2=C(C1)OC(=O)C2(NC(=O)c1cccs1)C(F)(F)F (stereo not drawn)      n
 8  O=C1CC(Cc2ccccc2)C(=O)N1CCCn1ccnc1 (stereo not drawn)      y
 9  O=C(NCc1ccccn1)C(C(=O)c1ccc(F)cc1)n1ccccc1=O (stereo not drawn)      n
10  Cc1ccc(S(=O)(=O)NCCC(=O)OCn2nnc3ccccc3c2=O)cc1      n
11  COc1cccc(NC(=O)Cc2nnc(SCC(=O)c3ccccc3)n2C)c1      y
12  COC(=O)c1c(C)oc2ccc(NS(=O)(=O)c3cccs3)cc12      n
13  O=C(COC(=O)CSc1nnc(-c2ccc(Cl)cc2)o1)NCc1ccc2c(c1)OCO2      n
14  O=C(NCCC1=CCCCC1)C1CCN(C(=O)Nc2ccccc2)CC1      n
15  COC(=O)C1=C(C)n2nnnc2NC1c1ccc(Cl)cc1 (stereo not drawn)      y
16     COc1ccc2cc(C#N)c(SCC(=O)N3CCCC3)nc2c1      y
17        O=C(c1ccco1)N1CCN(c2ccc(Cl)cc2)CC1      y
18  CC(C)(C)n1ncc2c(=O)n(CC(=O)NCc3ccco3)cnc21      y
19                   CC(C)(S)[C@@H](N)C(=O)O      n
20           COc1ccc(CN(CCN(C)C)c2ccccn2)cc1      y
